System: T1, Human IL-33-his (human, UniProt O95760 112-270, biotinylated with EZ-Link NHS-Biotin where used as IL-33-his-biotin)
T1 sequence: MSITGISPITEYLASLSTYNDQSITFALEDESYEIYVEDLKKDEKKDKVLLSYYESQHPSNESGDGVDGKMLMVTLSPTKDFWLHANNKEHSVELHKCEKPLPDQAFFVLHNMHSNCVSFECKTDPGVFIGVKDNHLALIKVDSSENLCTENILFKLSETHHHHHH
Assay Protocol: cell-based or functional assay
Endpoint Label: IC50 of the inhibitory effect on IL-6 expression in HUVEC cells induced by IL-33 (nM)
// note: answer is a bare numeric in nM

[
  {
    "Binder": "871G1-Hu2 (antibody, human IgG4 S228P, kappa, V domains shown, Humanized; also called humanized antibody 871G1-Hu2) VH: QVQLQESGPGLVKPSETLSLTCTVSGFSLSKYGVHWIRQPPGKGLEWLGVLRAGGTISYNSALMSRLTISEDISKSQVSLKLSSVTAADTAVYYCARDHYYYSSFGGFASWGQGTLVTVSS VL: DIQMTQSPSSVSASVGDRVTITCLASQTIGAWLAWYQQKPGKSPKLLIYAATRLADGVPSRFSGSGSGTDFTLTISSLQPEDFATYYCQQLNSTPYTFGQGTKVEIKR",
    "Units Symbol": "nM",
    "Meas Value": 0.175
  },
  {
    "Binder": "871G1-Hu1 (antibody, human IgG4 S228P, kappa, V domains shown, Humanized; also called humanized antibody 871G1-Hu1) VH: QVQLQESGPGLVKPSETLSLTCTVSGFSLSKYGVHWIRQPPGKGLEWIGVLRAGGTISYNSALMSRVTISEDISKSQVSLKLSSVTAADTAVYYCARDHYYYSSFGGFASWGQGTLVTVSS VL: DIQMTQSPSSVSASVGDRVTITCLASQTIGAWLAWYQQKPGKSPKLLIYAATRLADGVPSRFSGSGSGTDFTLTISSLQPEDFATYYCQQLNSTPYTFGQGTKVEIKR",
    "Units Symbol": "nM",
    "Meas Value": 0.21
  },
  {
    "Binder": "864F3-Hu5 (antibody, human IgG4 S228P, kappa, V domains shown, Humanized; also called humanized antibody 864F3-Hu5) VH: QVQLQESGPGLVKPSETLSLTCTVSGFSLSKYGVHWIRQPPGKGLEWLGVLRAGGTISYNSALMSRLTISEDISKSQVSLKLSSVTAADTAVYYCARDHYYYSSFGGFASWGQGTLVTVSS VL: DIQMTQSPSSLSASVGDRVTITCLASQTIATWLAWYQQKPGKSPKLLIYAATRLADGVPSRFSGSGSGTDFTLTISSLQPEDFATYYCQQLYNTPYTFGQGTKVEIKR",
    "Units Symbol": "nM",
    "Meas Value": 0.147
  },
  {
    "Binder": "874F7-Hu2 (antibody, human IgG4 S228P, kappa, V domains shown, Humanized; also called humanized antibody 874F7-Hu2) VH: QVQLQESGPGLVKPSETLSLTCTVSGFSLSKYGVHWIRQPPGKGLEWLGVLRAGGSTGYNSALMSRLTISKDSSKSQVSLKLSSVTAADTAVYYCVRDHYYYSSYGGFVYWGQGTLVTVSS VL: DIQMTQSPSSVSASVGDRVTITCLASQTIGAWLAWYQQKPGKSPKLLIYAATRLADGVPSRFSGSGSGTDFTLTISSLQPEDFATYYCQQLDSSPYTFGQGTKVEIKR",
    "Units Symbol": "nM",
    "Meas Value": 0.05
  }
]

// next entry
// 864F3-Hu4 (antibody, human IgG4 S228P, kappa, V domains shown, Humanized; also called humanized antibody 864F3-Hu4) VH: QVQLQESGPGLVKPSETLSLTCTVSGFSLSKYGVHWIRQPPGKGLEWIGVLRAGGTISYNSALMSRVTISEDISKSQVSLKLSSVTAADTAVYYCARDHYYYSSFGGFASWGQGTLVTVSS VL: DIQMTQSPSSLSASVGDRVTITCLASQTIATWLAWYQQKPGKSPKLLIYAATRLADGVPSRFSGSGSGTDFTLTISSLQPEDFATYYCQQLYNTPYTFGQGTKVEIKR : IC50 of the inhibitory effect on IL-6 expression in HUVEC cells induced by IL-33 value = 0.073
